Attribution: PubChem BioAssay AID1159580

Each item that follows carries a reported normalized growth.
assay: chemical genetic growth profiling, strain panel (AID 1159580);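 also: tested at 20 µM; growth read once vehicle control cultures reached saturation at 30 °C; 1 = growth at the plate median or of vehicle wells; lower values mean less growth of the strain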; conditions: S. cerevisiae deletion strains, growth OD, locus YOR231W, strain MKK1, hits give low values
Out of some 5,500 compounds screened, about 2,000 (36%) were called active. Inconclusive results (about 18%) are left out. Some of the results follow.
value-kind: normalized growth

>  <compound>
COc1cc(OC)c2c(=O)c(-c3ccc4c(c3)OCO4)coc2c1

>  <observed-measurement>
1.07

$$$$
>  <compound>
Cc1oc(-c2ccc(Cl)cc2)cc1C(=O)N1CCN(c2ccc(C(F)(F)F)cn2)CC1

>  <observed-measurement>
0.96

$$$$
>  <compound>
CC(=O)OCC(=O)[C@@]1(O)CCC2C3CCC4=CC(=O)C=C[C@]4(C)[C@@]3(F)[C@@H](O)C[C@@]21C (stereo partly specified)

>  <observed-measurement>
1.05

$$$$
>  <compound>
CCCCC(=O)O[C@H]1CCC2C3CCc4cc(O)ccc4C3CC[C@@]21C (stereo partly specified)

>  <observed-measurement>
1.04

$$$$
>  <compound>
CC(=O)Oc1ccc2c(c1)CCC1C2CC[C@@]2(C)C1CC[C@@H]2OC(C)=O (stereo partly specified)

>  <observed-measurement>
0.923

$$$$
>  <compound>
CC1(C)C[C@@H]2C(=O)CC[C@H]3O[C@]3(C)CC[C@H]21

>  <observed-measurement>
0.947

$$$$
>  <compound>
C[C@]12CCC3c4ccc(O)cc4CCC3C1CC[C@@H]2OC(=O)CCC1CCCC1 (stereo partly specified)

>  <observed-measurement>
1.07

$$$$
>  <compound>
Cc1cc(C)nc(NS(=O)(=O)c2ccc(N)cc2)n1

>  <observed-measurement>
0.995

$$$$
>  <compound>
O=C(CCCN1CC=C(n2c(=O)[nH]c3ccccc32)CC1)c1ccc(F)cc1

>  <observed-measurement>
0.992

$$$$
>  <compound>
CN(C)CC(=O)OC[C@@H](O)[C@@H](O)[C@H](O)[C@@H](O)C(=O)O

>  <observed-measurement>
0.964

$$$$
>  <compound>
N#CC(C#N)=NNc1ccc(C(F)(F)F)cc1

>  <observed-measurement>
0.126

$$$$
>  <compound>
Nc1ccc(N2CCN(c3ccc(C(F)(F)F)cn3)CC2)nc1

>  <observed-measurement>
0.904

$$$$
>  <compound>
N#C/C(=N/Nc1ccc(C(F)(F)F)cc1)C(=O)C1CC1

>  <observed-measurement>
0.89

$$$$
>  <compound>
CCS(=O)(=O)CCn1c([N+](=O)[O-])cnc1C

>  <observed-measurement>
0.962

$$$$
>  <compound>
O=c1[nH]c2ccccc2n1C1CCN(CCCC(c2ccc(F)cc2)c2ccc(F)cc2)CC1

>  <observed-measurement>
0.984

$$$$
>  <compound>
CC(=O)OCC(=O)[C@@]1(O)CCC2C3CCC4=CC(=O)CC[C@]4(C)[C@@]3(F)[C@@H](O)C[C@@]21C (stereo partly specified)

>  <observed-measurement>
1

$$$$
>  <compound>
O=C(Oc1ccc(C2SCCS2)cc1)c1cccs1

>  <observed-measurement>
0.549

$$$$
>  <compound>
CCC(=O)O[C@H]1CCC2C3CCc4cc(O)ccc4C3CC[C@@]21C (stereo partly specified)

>  <observed-measurement>
0.483

$$$$
>  <compound>
Nc1ncnc2c1ncn2[C@@H]1O[C@H](CO)[C@@H](O)[C@@H]1O

>  <observed-measurement>
0.981

$$$$
>  <compound>
CC(C)=CCc1c(O)cc2occ(-c3ccc4c(c3)OCO4)c(=O)c2c1O

>  <observed-measurement>
0.816

$$$$
>  <compound>
CCCCCc1ccc(S(=O)(=O)Nc2ncc(C)cc2Br)cc1

>  <observed-measurement>
0.783

$$$$

* * *

experiment: chemical genetic growth profiling, strain panel (AID 1159580);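 also: tested at 20 µM; growth read once vehicle control cultures reached saturation at 30 °C; 1 = growth at the plate median or of vehicle wells; lower values mean less growth of the strain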; settings: S. cerevisiae deletion strains, growth OD, locus YPR119W, strain clb2, hits give low values
In all, about 5,500 compounds went through this assay and about 2,000 (36%) were called active. Roughly 18% stayed inconclusive and do not appear here. Some of the results follow.
Binarize normalized growth at 1; below is Fulfilled, at or above is Not fulfilled.

>  <smiles-record>
CC1=C2[C@](C)(C=CC1=O)C[C@H](O)[C@H]1[C@H](C)C(=O)O[C@]21C

>  <classification>
Not fulfilled

$$$$
>  <smiles-record>
CCOc1ccc(Cc2nccc3cc(OCC)c(OCC)cc23)cc1OCC

>  <classification>
Fulfilled

$$$$

* * *

assay: chemical genetic growth profiling, strain panel (AID 1159580);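 also: tested at 20 µM; growth read once vehicle control cultures reached saturation at 30 °C; 1 = growth at the plate median or of vehicle wells; lower values mean less growth of the strain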; settings: S. cerevisiae deletion strains, growth OD, locus YLR262C, strain YPT6 (second series)
Among all 5,500 compounds or so, about 2,000 (36%) were called active. Another 18% or so got no clear call; they are omitted. No stated cut-off is given here; in the data, active means normalized growth mostly below about 0.91 (no sharp cut-off); inconclusive means no clear call, values can overlap the other calls; inactive means mostly above about 0.92. The list shows a part of the results.
Outcome codes: yes (1) for active, no (0) for inactive

>  <compound>
Cc1cccc(N(C)C(=S)Oc2ccc3ccccc3c2)c1

>  <classification>
no (0)

$$$$
>  <compound>
CCCc1nc(C(C)(C)O)c(C(=O)OCc2oc(=O)oc2C)n1Cc1ccc(-c2ccccc2-c2nn[nH]n2)cc1

>  <classification>
no (0)

$$$$
>  <compound>
CC(C)=CCC/C(C)=C/COc1ccc2ccc(=O)oc2c1

>  <classification>
no (0)

$$$$
>  <compound>
COc1ccc(Cc2nccc3cc(OC)c(OC)cc23)cc1OC

>  <classification>
no (0)

$$$$
>  <compound>
COc1c2occc2cc2ccc(=O)oc12

>  <classification>
no (0)

$$$$
>  <compound>
COc1ccc2c(c1)[nH]c1c(C)nccc12

>  <classification>
no (0)

$$$$
>  <compound>
CC(C)(O)CC[C@@H](O)[C@](C)(O)C1CC[C@@]2(O)C3=CC(=O)C4C[C@@H](O)[C@@H](O)C[C@]4(C)C3CC[C@]12C (stereo partly specified)

>  <classification>
yes (1)

$$$$
>  <compound>
O=c1[nH]c2ccccc2n1CCCN1CCC(n2c(=O)[nH]c3cc(Cl)ccc32)CC1

>  <classification>
no (0)

$$$$
>  <compound>
Cn1nnnc1SCC1=C(C(=O)O)N2C(=O)C(NC(=O)C(OC=O)c3ccccc3)C2SC1 (stereo unspecified)

>  <classification>
no (0)

$$$$
>  <compound>
CN1CCN(C(c2ccccc2)c2ccccc2)CC1

>  <classification>
no (0)

$$$$
>  <compound>
FC(F)(F)COCC(F)(F)F

>  <classification>
no (0)

$$$$
>  <compound>
COc1ccc2[nH]cc(CCNC(C)=O)c2c1

>  <classification>
no (0)

$$$$
>  <compound>
CC1(C)S[C@@H]2[C@H](NC(=O)COc3ccccc3)C(=O)N2[C@H]1C(=O)O

>  <classification>
no (0)

$$$$
>  <compound>
O=c1ccc2cc(O[C@@H]3O[C@H](CO)[C@@H](O)[C@H](O)[C@H]3O)c(O)cc2o1

>  <classification>
no (0)

$$$$
>  <compound>
CC1(C)C=Cc2c(cc3occ(-c4ccc5c(c4)OCO5)c(=O)c3c2O)O1

>  <classification>
no (0)

$$$$
>  <compound>
O=c1n(CCCN2CCN(c3cccc(Cl)c3)CC2)nc2ccccn12

>  <classification>
no (0)

$$$$
>  <compound>
O=C(O)c1cc2cc(Cl)ccc2[nH]1

>  <classification>
no (0)

$$$$
>  <compound>
COC(=O)C1=CO[C@@H](O[C@@H]2O[C@H](CO)[C@@H](O)[C@H](O)[C@H]2O)[C@@H]2[C@@H](C)[C@@H](O)C[C@H]12

>  <classification>
no (0)

$$$$
>  <compound>
CC(C)=CCc1c(O)cc2occ(-c3ccc4c(c3)OCO4)c(=O)c2c1O

>  <classification>
no (0)

$$$$
>  <compound>
COc1cc2c(cc1-c1coc3c4c(c(OC)cc3c1=O)OC(C)(C)C=C4)OCO2

>  <classification>
yes (1)

$$$$
>  <compound>
O=c1cc(-c2ccc(O)cc2)oc2cc(O[C@@H]3O[C@H](CO)[C@@H](O)[C@H](O)[C@H]3O[C@@H]3OC[C@](O)(CO)[C@H]3O)cc(O)c12

>  <classification>
no (0)

$$$$
>  <compound>
C[N+]1(C)CCc2cc3c(cc2[C@H]1C1OC(=O)c2c1ccc1c2OCO1)OCO3 (stereo partly specified)

>  <classification>
no (0)

$$$$
>  <compound>
COc1cc(OC)c(C(C)=O)c(O)c1C

>  <classification>
yes (1)

$$$$
>  <compound>
C=C(C)c1cc2cc(C(C)=O)c(O)cc2o1

>  <classification>
yes (1)

$$$$
>  <compound>
COc1c(O)cc(O)cc1O

>  <classification>
no (0)

$$$$
>  <compound>
CN(C)c1nc(N(C)C)nc(N(C)C)n1

>  <classification>
no (0)

$$$$
>  <compound>
COC(=O)C[C@H]1C(C)(C)[C@@H](OC(C)=O)[C@@H]2CC3C4CC(=O)O[C@@H](c5ccoc5)[C@]4(C)CCC3[C@@]1(C)C2=O (stereo partly specified)

>  <classification>
no (0)

$$$$
>  <compound>
CC(C)=CCOc1c2occc2cc2ccc(=O)oc12

>  <classification>
yes (1)

$$$$
>  <compound>
CCCC(=O)Nc1ncnc2c1ncn2C1O[C@@H]2COP(=O)(O)O[C@H]2[C@H]1OC(=O)CCC (stereo partly specified)

>  <classification>
no (0)

$$$$
>  <compound>
CCOC(=O)C1=C(C)NC(C)=C(C(=O)OC)C1c1cccc([N+](=O)[O-])c1 (stereo unspecified)

>  <classification>
no (0)

$$$$
>  <compound>
COc1c2c(cc3occ(-c4ccc5c(c4)OCO5)c(=O)c13)OC(C)(C)C=C2

>  <classification>
no (0)

$$$$
>  <compound>
COc1cc2ccc(=O)oc2c(OC)c1OC

>  <classification>
no (0)

$$$$
>  <compound>
CCCCC(=O)N(Cc1ccc(-c2ccccc2-c2nn[nH]n2)cc1)[C@H](C(=O)O)C(C)C

>  <classification>
no (0)

$$$$
>  <compound>
C[C@H]1C(=O)O[C@@H]2CCN3CC=C(COC(=O)[C@](C)(O)[C@]1(C)O)[C@H]23

>  <classification>
no (0)

$$$$
>  <compound>
O=C(O)c1cccc(O)c1O

>  <classification>
no (0)

$$$$
>  <compound>
CN1Cc2c(N)cccc2C(c2ccccc2)C1 (stereo unspecified)

>  <classification>
no (0)

$$$$
>  <compound>
COc1ccc2c(=O)c(-c3cc4c(cc3OC)OCO4)coc2c1

>  <classification>
no (0)

$$$$
>  <compound>
CCOc1nc2cccc(C(=O)OC(C)OC(=O)OC3CCCCC3)c2n1Cc1ccc(-c2ccccc2-c2nn[nH]n2)cc1 (stereo unspecified)

>  <classification>
yes (1)

$$$$
>  <compound>
O=c1c(-c2ccc3c(c2)OCO3)coc2cc(O)ccc12

>  <classification>
no (0)

$$$$
>  <compound>
CC(=O)O[C@@H]1CC2C(C)(C)[C@H](O)C[C@H](O)[C@]2(C)C2CC[C@@]3(C)C(=CC(=O)O[C@H]3c3ccoc3)[C@@]21C (stereo partly specified)

>  <classification>
no (0)

$$$$
>  <compound>
OC[C@@H](O)C(O[C@@H]1O[C@H](CO)[C@H](O)[C@H](O)[C@H]1O)[C@H](O)[C@@H](O)CO (stereo partly specified)

>  <classification>
no (0)

$$$$
